Measured IC50 values are reported for all entries that follow.
# targetEntity: HPK1 kinase (aa1-346, Life Technologies) (Homo sapiens, UniProt Q92918)
# Sequence (Q92918 1-346): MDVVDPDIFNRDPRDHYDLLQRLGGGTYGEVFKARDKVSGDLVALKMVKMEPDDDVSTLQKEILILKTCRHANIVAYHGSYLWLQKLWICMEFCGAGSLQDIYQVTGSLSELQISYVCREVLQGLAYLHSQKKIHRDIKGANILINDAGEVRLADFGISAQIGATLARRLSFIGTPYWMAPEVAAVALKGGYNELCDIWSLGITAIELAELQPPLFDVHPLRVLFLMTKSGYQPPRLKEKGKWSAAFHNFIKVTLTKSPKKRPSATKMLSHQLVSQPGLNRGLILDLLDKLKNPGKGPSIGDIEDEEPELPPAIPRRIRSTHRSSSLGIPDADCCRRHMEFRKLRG
Numeric answer only, unit nM assumed.

Please review the following examples before continuing.
q: Quote IC50 with test system HPK1 kinase (aa1-346, Life Technologies) (Homo sapiens, UniProt Q92918) for Cc1cc(-c2cnc3[nH]cc(-c4ccc(C(=O)N(C)CC(C)(C)O)cc4)c3n2)cc2c1N1CCN(C)C[C@@H]1CC2 [Example 12B]
a: 52

q: Quote IC50 with test system HPK1 kinase (aa1-346, Life Technologies) (Homo sapiens, UniProt Q92918) for Cc1cc(-c2c[nH]c3ncc(-c4cc(C)c5c(c4)CC[C@@H]4CN(C)CCN54)nc23)ccc1C(=O)N(C)C[C@@H]1CCOC1 [Example 11A]
a: 52

q: Quote IC50 with test system HPK1 kinase (aa1-346, Life Technologies) (Homo sapiens, UniProt Q92918) for Cc1cc(-c2cnc3[nH]cc(-c4ccc(C(=O)N(C)C[C@H]5CCOC5)cc4)c3c2)cc2c1N1CCN(C)C[C@@H]1CC2
a: 27

q: Quote IC50 with test system HPK1 kinase (aa1-346, Life Technologies) (Homo sapiens, UniProt Q92918) for Cc1cc(-c2cnc3[nH]cc(-c4ccc(C(=O)N(C)CC(C)(C)O)cc4)c3n2)cc2c1N1CCN(C)C[C@H]1CC2 [Example 12A]
a: 52

q: Quote IC50 with test system HPK1 kinase (aa1-346, Life Technologies) (Homo sapiens, UniProt Q92918) for Cc1cc(-c2cnc3[nH]cc(-c4ccc(C(=O)N(C)C)cc4)c3c2)cc2c1N1CCN(C)CC1CC2 (stereo not drawn)
a: 31

Others:
q: Quote IC50 with test system HPK1 kinase (aa1-346, Life Technologies) (Homo sapiens, UniProt Q92918) for Cc1cc(-c2c[nH]c3ncc(-c4cc(C)c5c(c4)CC[C@@H]4CN(C)CCN54)nc23)ccc1C(=O)N(C)CC(C)(C)O [Example 13A]
a: 101

---

# targetEntity: HPK1 kinase (aa1-346, Life Technologies) (Homo sapiens)
assayEndpoint: IC50 (nM)
Numeric answer only, unit nM assumed.

q: Return value of IC50 for input Cc1cc(-c2c[nH]c3ncc(-c4cc(C)c5c(c4)CC[C@H]4CN(C)CCN54)nc23)ccc1C(=O)N(C)CC(C)(C)O [Example 13B] , no commentary.
a: 96

Others:
q: Return value of IC50 for input Cc1cc(-c2cnc3[nH]cc(-c4ccc(C(=O)N(C)C[C@@H]5CCOC5)cc4)c3c2)cc2c1N1CCN(C)C[C@@H]1CC2 [Example 4B] , no commentary.
a: 15

q: Return value of IC50 for input Cc1cc(-c2cnc3[nH]cc(-c4ccc(C(=O)N(C)C[C@@H]5CCOC5)cc4)c3n2)cc2c1N1CCN(C)C[C@@H]1CC2 [Example 10B] , no commentary.
a: 17

---

# targetEntity: HPK1 kinase (aa1-346, Life Technologies) (Homo sapiens, UniProt Q92918)
# Sequence (Q92918 1-346): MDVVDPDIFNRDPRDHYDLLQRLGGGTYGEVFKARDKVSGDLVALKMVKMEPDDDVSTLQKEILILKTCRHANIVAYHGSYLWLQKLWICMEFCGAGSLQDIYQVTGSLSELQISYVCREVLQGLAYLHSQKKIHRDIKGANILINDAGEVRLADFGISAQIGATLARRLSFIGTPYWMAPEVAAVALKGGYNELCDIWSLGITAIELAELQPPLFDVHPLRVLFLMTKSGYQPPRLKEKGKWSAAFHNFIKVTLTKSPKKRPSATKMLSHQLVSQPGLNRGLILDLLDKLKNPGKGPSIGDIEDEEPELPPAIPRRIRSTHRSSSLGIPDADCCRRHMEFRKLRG
assayEndpoint: pIC50
In textbook form, pIC50 equals minus log to base ten of the concentration in mol/L.

Please review the following examples before continuing.
q: Return value of pIC50 for input Cc1cc(-c2cnc3[nH]cc(-c4ccc(C(=O)N(C)C[C@H](C)O)cc4)c3c2)cc2c1N1CCN(C)C[C@H]1CC2 , no commentary.
a: 7.85

q: Return value of pIC50 for input Cc1cc(-c2c[nH]c3ncc(-c4cc(C)c5c(c4)CC[C@H]4CN(C)CCN54)nc23)ccc1C(=O)N(C)C[C@@H]1CCOC1 [Example 11B] , no commentary.
a: 7.28

q: Return value of pIC50 for input Cc1cc(-c2c[nH]c3ncc(-c4cc(C)c5c(c4)CC[C@@H]4CN(C)CCN54)nc23)ccc1C(=O)N1CC2(COC2)C1 , no commentary.
a: 7.24

q: Return value of pIC50 for input Cc1cc(-c2cnc3[nH]cc(-c4ccc(C(=O)N(C)C)cc4)c3n2)cc2c1N1CCN(C)C[C@H]1CC2 , no commentary.
a: 7.64

Others:
q: Return value of pIC50 for input Cc1cc(-c2cnc3[nH]cc(-c4ccc(C(=O)N(C)C[C@@H]5CCOC5)cc4)c3n2)cc2c1N1CCN(C)C[C@H]1CC2 [Example 10A] , no commentary.
a: 7.77
